All figures here come from PubChem BioAssay (EPA / NIEHS).

experiment: ATG_GLI_CIS: Attagene CIS-FACTORIAL HepG2 Assay for human Zinc Finger Protein GLI1 (AID 2282945); conditions: HepG2, Attagene cis-factorial reporter mRNA, GLI element; actives raise or lower the signal
Activity calls are given as the source filed them. The calls were made as follows: active = hit-call score of the fitted dose curve at least 0.9, where 1 is the maximum; inactive = score below 0.9.
ENDPOINT: outcome

* Cc1ccc(Nc2ccc(O)c3c2C(=O)c2ccccc2C3=O)cc1 | inactive
* CCCCOCCOCCSC#N | inactive
* OC1C(O)C(O)C(O)C(O)C1O (centres undefined) | inactive
* COC(=O)c1ccc(C)cc1 | inactive
* Cc1ccc(C=O)cc1 | inactive
* Clc1sc(Cl)c(Cl)c1Cl | inactive
* CC(=O)OCc1ccc2c(c1)OCO2 | inactive
* COc1ccnc(CS(=O)c2nc3cc(OC(F)F)ccc3[nH]2)c1OC (centres undefined) | inactive
* CO[Si](CCCn1c(=O)n(CCC[Si](OC)(OC)OC)c(=O)n(CCC[Si](OC)(OC)OC)c1=O)(OC)OC | inactive
* CCCCCCC#CC(=O)OC | inactive
* CCCCOCCOCCOCCOCCO | inactive
* CSc1nc(NC2CC2)nc(NC(C)(C)C)n1 | inactive
* Cc1ccc(S)cc1 | inactive
* CC(C)(C)c1n[nH]c(=S)n(N)c1=O | inactive

###

experiment: BSK_hDFCGF_SRB: Viability Assessment in the BioMAP Diversity Plus: hDFCGF Assay (AID 2283061); conditions: primary human foreskin fibroblasts;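 also: cells exposed to compound for 24 h before the read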
The source made the active and inactive calls. How the source made its calls: active means hit-call score of the fitted dose curve at least 0.9, where 1 is the maximum; inactive means score below 0.9.
Outcome codes: active, inactive

• C#C[C@]1(O)CC[C@H]2[C@@H]3CCC4=Cc5oncc5C[C@]4(C)[C@H]3CC[C@@]21C = inactive
• C=CCOC(=O)CCC1CCCCC1 = inactive
• CCCCC(CC)COC(=O)/C=C\C(=O)OCC(CC)CCCC (centres undefined) = inactive
• Cc1ccc(O)c(C(C)(C)C)c1 = active
• COc1cc(C=O)ccc1OC(=O)C(C)C = inactive
• O=C(O)c1ccc([N+](=O)[O-])cc1 = inactive
• CCCCC(CC)COCCC#N (centres undefined) = inactive
• CC(=O)OCCC(C)CC(C)(C)C (centres undefined) = inactive
• O=C1CCCCCCCCCCCCCCO1 = inactive
• c1ccc2sc(SN(C3CCCCC3)C3CCCCC3)nc2c1 = active
• COC(=O)c1ccc(C)cc1 = inactive
• O=C(O)c1cn(-c2ccc(F)cc2)c2cc(N3CCNCC3)c(F)cc2c1=O = inactive
• CC(=O)/C=C/C1=C(C)CCCC1(C)C = inactive
• CCc1c(C)cc(N)c(CC)c1N = inactive
• CCCCCCCCC=O = inactive
• CN(CCOc1ccc(CC2SC(=O)NC2=O)cc1)c1ccccn1 (centres undefined) = inactive
• O=C=NC1CCC(CC2CCC(N=C=O)CC2)CC1 (centres undefined) = inactive
• Cc1ccc2n[nH]nc2c1 = inactive
• CC1COc2ccccc2N1C(=O)C(Cl)Cl (centres undefined) = active
• CC(C)c1ccc(C(C)C)cc1 = active
• CC1CCC(C(C)CS)CC1S (centres undefined) = active
• NCCNCCN = inactive
• O=C1OC2(c3cc(Br)c(O)c(Br)c3Oc3c2cc(Br)c(O)c3Br)c2c(Cl)c(Cl)c(Cl)c(Cl)c21 = active
• CCC(=O)OCc1ccccc1 = inactive
• O=C(O)C[C@H](O)C[C@H](O)/C=C/c1c(C2CC2)nc2ccccc2c1-c1ccc(F)cc1 = inactive
• CC(C)(COC(=O)c1ccccc1)COC(=O)c1ccccc1 = active
• CC(=O)Nc1ccccc1O = inactive
• O=C(O)c1cn(C2CC2)c2cc(N3CCNCC3)c(F)cc2c1=O = inactive
• Cc1ccc(Nc2ccc(O)c3c2C(=O)c2ccccc2C3=O)cc1 = inactive
